- measurement-protocol: Clearance assay: mouse intravenous (IV) clearance
- Assay type: in vivo
- conditions: female BALB/c mice, single IV dose of 1 mg/kg; clearance as % of mouse liver blood flow
observable: IV Mouse CL, % of liver blood flow

>  <structure>
CSCCN1CCN(C(=O)Cn2cc(NC(=O)c3cnn4cccnc34)c(-c3cc(Cl)ccc3OC(F)F)n2)CC1

>  <IV Mouse CL, % of liver blood flow>
>100%

$$$$
>  <structure>
O=C(Nc1cn(CC(=O)N2CCC(CN3CCOCC3)CC2)nc1-c1cc(Cl)ccc1OC(F)F)c1cnn2cccnc12

>  <IV Mouse CL, % of liver blood flow>
>100%

$$$$
>  <structure>
CN(CC(F)(F)F)C1CCN(C(=O)Cn2cc(NC(=O)c3cnn4cccnc34)c(-c3cc(Cl)ccc3OC(F)F)n2)CC1

>  <IV Mouse CL, % of liver blood flow>
>100%

$$$$
>  <structure>
CN(C)C1CCN(C(=O)Cn2cc(NC(=O)c3cnn4cccnc34)c(-c3cc(Cl)ccc3OC(F)F)n2)CC1

>  <IV Mouse CL, % of liver blood flow>
>100%

$$$$
>  <structure>
N#CC1(CNC2CCN(C(=O)Cn3cc(NC(=O)c4cnn5cccnc45)c(-c4cc(Cl)ccc4OC(F)F)n3)CC2)CC1

>  <IV Mouse CL, % of liver blood flow>
>100%

$$$$

Record COCCNCCn1cc(NC(=O)c2cnn3cccnc23)c(-c2cc(Cl)ccc2OC(F)F)n1 . Reported IV Mouse CL, % of liver blood flow: >100%
